Would you mind telling me the reported inhibition at 1 µM of each entry?
- study_system: JAK3 (Homo sapiens)
- Construct: purchased Invitrogen
- Sequence (P52333 whole entry): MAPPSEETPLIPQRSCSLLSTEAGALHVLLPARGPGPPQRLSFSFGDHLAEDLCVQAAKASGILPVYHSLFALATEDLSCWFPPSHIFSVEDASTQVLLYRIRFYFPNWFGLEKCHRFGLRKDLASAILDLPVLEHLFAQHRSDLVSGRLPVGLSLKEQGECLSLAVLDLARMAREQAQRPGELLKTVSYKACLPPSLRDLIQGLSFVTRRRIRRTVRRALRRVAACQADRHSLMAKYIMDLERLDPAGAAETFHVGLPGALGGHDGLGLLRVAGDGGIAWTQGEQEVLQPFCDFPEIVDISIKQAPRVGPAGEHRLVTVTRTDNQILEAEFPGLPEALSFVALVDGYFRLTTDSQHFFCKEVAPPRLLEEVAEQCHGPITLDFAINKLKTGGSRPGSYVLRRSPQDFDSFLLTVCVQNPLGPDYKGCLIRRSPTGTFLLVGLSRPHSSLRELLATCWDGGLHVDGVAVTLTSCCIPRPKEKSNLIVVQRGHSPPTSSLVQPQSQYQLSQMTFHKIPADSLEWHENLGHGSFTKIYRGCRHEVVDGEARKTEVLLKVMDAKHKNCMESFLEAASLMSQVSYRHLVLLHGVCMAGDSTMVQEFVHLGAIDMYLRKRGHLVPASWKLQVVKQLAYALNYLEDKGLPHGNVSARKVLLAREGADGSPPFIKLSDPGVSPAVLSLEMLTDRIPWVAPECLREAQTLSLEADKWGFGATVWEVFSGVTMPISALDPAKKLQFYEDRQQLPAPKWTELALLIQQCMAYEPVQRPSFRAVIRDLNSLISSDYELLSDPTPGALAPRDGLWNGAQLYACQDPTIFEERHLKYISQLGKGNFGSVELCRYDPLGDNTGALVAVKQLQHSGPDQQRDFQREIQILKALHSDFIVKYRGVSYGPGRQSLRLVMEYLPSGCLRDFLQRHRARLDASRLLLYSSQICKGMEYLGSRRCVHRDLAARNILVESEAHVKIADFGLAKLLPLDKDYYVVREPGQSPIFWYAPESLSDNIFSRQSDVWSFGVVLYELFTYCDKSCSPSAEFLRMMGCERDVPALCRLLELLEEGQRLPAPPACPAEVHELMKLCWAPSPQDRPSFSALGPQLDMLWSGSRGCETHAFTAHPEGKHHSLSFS
- assay_overview: JAK3 enzyme inhibition test (LANCE method)
- Assay type: biochemical
- test_context: 1 μM test compound; read-out: JAK3 enzyme inhibitory activity (%, 1 μM)
Write it as a number; the unit % goes unstated.

Exam item: Which measured inhibition at 1 µM value corresponds to CC(C)[C@H](C)n1cc(-c2cc(N3CCS(=O)(=O)CC3)n(C)n2)c2[nH]nc(N)c2c1=O ?
Marked response: 99

Exam item: Now try Cn1nc(-c2cn(-c3c(F)cccc3C#N)c(=O)c3c(N)n[nH]c23)cc1N1CCOCC1 .
Marked response: 99

Exam item: Consider next the molecule CC(C1CC1)n1cc(-c2cc(CN3CCS(=O)(=O)CC3)n(C)n2)c2[nH]nc(N)c2c1=O (stereo not shown) in the same way.
Marked response: 100

Exam item: Same question, COC1(c2cc(-c3cn([C@@H](C)C(C)C)c(=O)c4c(N)n[nH]c34)nn2C)CN(S(=O)(=O)C(C)C)C1 this time
Marked response: 98

###

Kindly supply the reported JAK1 enzyme inhibitory activity (%, 1 μM) values for the records listed here.
- study_system: JAK1 (Homo sapiens, UniProt P23458)
- Construct: purchased Invitrogen
- Sequence (P23458 whole entry): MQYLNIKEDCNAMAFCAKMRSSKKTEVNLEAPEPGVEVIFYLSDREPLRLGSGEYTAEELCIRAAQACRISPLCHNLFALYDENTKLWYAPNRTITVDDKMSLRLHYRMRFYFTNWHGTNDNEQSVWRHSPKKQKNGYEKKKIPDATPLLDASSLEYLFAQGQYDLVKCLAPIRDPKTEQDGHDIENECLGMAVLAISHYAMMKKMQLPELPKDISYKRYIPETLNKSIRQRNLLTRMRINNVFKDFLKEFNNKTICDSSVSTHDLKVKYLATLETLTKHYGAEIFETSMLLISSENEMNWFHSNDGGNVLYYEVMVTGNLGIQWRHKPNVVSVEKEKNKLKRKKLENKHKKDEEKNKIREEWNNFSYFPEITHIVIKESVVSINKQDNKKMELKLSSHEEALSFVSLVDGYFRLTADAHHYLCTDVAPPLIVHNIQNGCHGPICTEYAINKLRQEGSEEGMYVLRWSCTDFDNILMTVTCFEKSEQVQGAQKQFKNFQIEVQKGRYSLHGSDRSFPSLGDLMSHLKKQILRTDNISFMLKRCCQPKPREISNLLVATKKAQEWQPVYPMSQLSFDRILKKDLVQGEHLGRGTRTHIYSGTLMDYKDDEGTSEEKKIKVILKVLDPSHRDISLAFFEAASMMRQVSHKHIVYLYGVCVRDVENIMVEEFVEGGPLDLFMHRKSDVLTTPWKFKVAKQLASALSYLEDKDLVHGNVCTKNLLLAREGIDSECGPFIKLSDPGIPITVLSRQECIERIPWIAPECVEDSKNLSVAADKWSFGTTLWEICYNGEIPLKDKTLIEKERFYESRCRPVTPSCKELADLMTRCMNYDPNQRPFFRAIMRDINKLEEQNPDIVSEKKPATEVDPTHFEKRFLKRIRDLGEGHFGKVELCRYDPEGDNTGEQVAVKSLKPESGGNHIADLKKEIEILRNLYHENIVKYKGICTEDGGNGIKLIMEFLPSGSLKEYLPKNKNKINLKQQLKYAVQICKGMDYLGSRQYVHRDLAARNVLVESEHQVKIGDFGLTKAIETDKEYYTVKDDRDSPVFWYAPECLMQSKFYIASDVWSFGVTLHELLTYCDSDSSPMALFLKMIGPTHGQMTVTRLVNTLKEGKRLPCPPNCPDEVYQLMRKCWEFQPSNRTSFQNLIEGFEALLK
- assay_overview: JAK1 enzyme inhibition test (LANCE method)
- Format: biochemical
- test_context: 1 μM test compound; 1 µM
Numbers only here, please. The scale is %.

Exam item: Find JAK1 enzyme inhibitory activity (%, 1 μM) (JAK1 (Homo sapiens, UniProt P23458)) for the entry CC1CCCCC1n1cc(-c2cc(N3CCOCC3)n(C)n2)c2[nH]nc(N)c2c1=O (centres unmarked) [Example 152]
Marked response: 100

Exam item: Could you do the same for CC1CCCCC1n1cc(-c2cc(N3CCOCC3)n(C)n2)c2[nH]nc(N)c2c1=O (centres unmarked) [Example 154] , please?
Marked response: 97

Exam item: Then this molecule: CC1CCCCC1n1cc(-c2cc(N3CCOCC3)n(C)n2)c2[nH]nc(N)c2c1=O (centres unmarked) [Example 153]
Marked response: 99

Exam item: Consider next the molecule CC(C)[C@H](C)n1cc(-c2cc(N3CCN4CCCC4C3)n(C)n2)c2[nH]nc(N)c2c1=O (some centres unmarked) [Example 61] in the same way.
Marked response: 97

Exam item: // query: Cn1nc(-c2cn(C3CCCC3(C)C)c(=O)c3c(N)n[nH]c23)cc1CN1CCS(=O)(=O)CC1 (centres unmarked) [Example 75]
Marked response: 66

Exam item: Param item: COC1(c2cc(-c3cn(C(C#N)C(C)C)c(=O)c4c(N)n[nH]c34)nn2C)CCC(F)(F)CC1 (centres unmarked) [Example 139]
Marked response: 32

Exam item: Request: CC(C)[C@H](C)n1cc(-c2cc(N3CCC(C)(O)C3)n(C)n2)c2[nH]nc(N)c2c1=O (some centres unmarked) [Example 63]
Marked response: 96

Exam item: Queued: CC(C)[C@H](C)n1cc(-c2cc(N3CCCC3CN(C)C)n(C)n2)c2[nH]nc(N)c2c1=O (some centres unmarked) [Example 103]
Marked response: 51

###

- study_system: TYK2 (Homo sapiens, UniProt P29597)
- Construct: purchased Invitrogen
- Sequence (P29597 whole entry): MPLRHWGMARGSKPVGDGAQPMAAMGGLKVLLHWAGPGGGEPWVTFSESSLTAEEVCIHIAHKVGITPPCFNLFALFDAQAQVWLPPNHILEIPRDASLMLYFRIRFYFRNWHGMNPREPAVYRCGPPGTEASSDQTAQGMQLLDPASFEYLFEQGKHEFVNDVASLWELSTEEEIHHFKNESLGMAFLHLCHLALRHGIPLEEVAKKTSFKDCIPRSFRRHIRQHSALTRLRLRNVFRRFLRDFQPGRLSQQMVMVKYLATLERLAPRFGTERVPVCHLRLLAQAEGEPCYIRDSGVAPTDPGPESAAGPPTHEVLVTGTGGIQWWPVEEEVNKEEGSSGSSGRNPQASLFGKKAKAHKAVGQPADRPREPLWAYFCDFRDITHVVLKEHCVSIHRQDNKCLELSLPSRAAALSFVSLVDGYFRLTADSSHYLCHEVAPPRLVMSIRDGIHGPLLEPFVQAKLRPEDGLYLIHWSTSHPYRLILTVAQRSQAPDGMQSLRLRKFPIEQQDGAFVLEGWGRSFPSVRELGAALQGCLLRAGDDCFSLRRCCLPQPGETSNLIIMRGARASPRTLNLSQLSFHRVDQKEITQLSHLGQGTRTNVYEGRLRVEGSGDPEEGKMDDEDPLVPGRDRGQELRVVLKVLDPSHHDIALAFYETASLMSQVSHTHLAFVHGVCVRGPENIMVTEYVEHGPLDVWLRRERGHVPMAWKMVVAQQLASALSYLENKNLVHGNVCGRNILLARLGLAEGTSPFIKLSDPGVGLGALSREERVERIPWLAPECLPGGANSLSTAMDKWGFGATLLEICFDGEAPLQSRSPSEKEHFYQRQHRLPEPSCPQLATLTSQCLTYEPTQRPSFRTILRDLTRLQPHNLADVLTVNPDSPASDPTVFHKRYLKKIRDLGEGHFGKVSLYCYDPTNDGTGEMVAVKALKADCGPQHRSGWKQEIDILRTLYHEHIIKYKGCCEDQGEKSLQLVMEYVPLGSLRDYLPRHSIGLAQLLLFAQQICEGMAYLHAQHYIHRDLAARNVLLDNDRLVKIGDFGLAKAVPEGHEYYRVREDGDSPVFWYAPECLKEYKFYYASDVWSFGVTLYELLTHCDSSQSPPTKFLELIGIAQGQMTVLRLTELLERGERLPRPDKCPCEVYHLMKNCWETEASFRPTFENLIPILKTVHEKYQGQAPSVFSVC
- assay_overview: TYK2 enzyme inhibition test (LANCE method)
- Format: biochemical
- test_context: 1 μM test compound; read-out: TYK2 enzyme inhibitory activity (%, 1 μM)
- Experimental: TYK2 enzyme inhibitory activity of test compounds was measured by the LANCE method (PerkinElmer). First, a test compound diluted with assay buffer (50 mM HEPES (pH 7.5), 10 mM MgCl2, 1 mM EGTA, 2 mM DTT, 0.01% Tween20, 0.01% BSA) was added to a 384-well plate by 2 μL each. Then, a TYK2 (Invitrogen) solution and a fluorescence-labeled peptide substrate (ULight-JAK1, PerkinElmer) solution diluted with assay buffer to 375 ng/mL and 300 nM, respectively, were added by 2 μL each. […]
Field: inhibition at 1 µM. Provide a value for each of the compounds that follow.

Exam item: What inhibition at 1 µM appears in the records for this compound with TYK2 (Homo sapiens, UniProt P29597)? Cn1nc(-c2cn(-c3c(F)cccc3F)c(=O)c3c(N)n[nH]c23)cc1N1CCC(C)(C#N)CC1 [Example 127]
Marked response: 100%

Exam item: Same again, this time with Cn1nc(-c2cn(C(C3CC3)C3CC3)c(=O)c3c(N)n[nH]c23)cc1C1CCCCC1 [Example 148]
Marked response: 110%

Exam item: Item: Cn1nc(-c2cn(C(C3CC3)C3CC3)c(=O)c3c(N)n[nH]c23)cc1N1CCS(=O)(=O)CC1 [Example 78]
Marked response: 99%

Exam item: Then this compound: CC(C)[C@H](C)n1cc(-c2cc(N3CCOC3=O)n(C)n2)c2[nH]nc(N)c2c1=O [Example 54]
Marked response: 98%
